All values here come from the supplement of paper PMC9170038.

Tested on: MS2 coat protein
Test: apparent KD of MS2 coat protein; designed switch direction (-1 OFF switch, 1 ON switch): -1; higher = weaker reporter binding
Conditions: Eterna round: R95; input ligand: FMN 200 uM
If the reported apparent KD of MS2 coat protein equals or exceeds 50 nM, assign criterion met. If not, assign criterion not met.

Some solved cases for reference:
Is it the case that AAUACAAUAAUUAAAGAGAUAGUACAUUAUACAAGUGAAACAUGAGGAUCACCCAUGUCCUCAUUUGCUCGUCUAAU [Hunting Buffalo with a BB Gun] (puzzle: Sensor v3, turn-off variant 2) has apparent KD of MS2 coat protein reaching or exceeding 50 nM?
criterion met

Is it the case that AAGCCUCAGGUUAGGAUAUACGCCUGGCCGAAGGAGUAGAAGGGACAUGAGGAUCACCCAUGUGGGUUCAAAAG [Atanvege] (puzzle: Brourd's mod of Exclusion 4) has apparent KD of MS2 coat protein reaching or exceeding 50 nM?
criterion met

Is it the case that UUUAACAAGCCAGAUCCUCACAUGAGGAUCACCCAUGUGCUCGUCUGAUUUUGUACUAUCAUGUGAGUGAUAGUGUU [Level Boss var2-06] (puzzle: Sensor v3, turn-off variant 1) has apparent KD of MS2 coat protein reaching or exceeding 50 nM?
criterion met

Is it the case that UUGGAACGAGGAUAUCGAUGGUGGAACAUGAGGAUCACCCAUGUAUGAGAUAGUGUAGUUCGAGAAGGCGUUAAGU [JR_E5_Sub054] (puzzle: Exclusion 5) has apparent KD of MS2 coat protein reaching or exceeding 50 nM?
criterion not met

Is it the case that AAUAAGCAAGGAUAUACGACGAAAAGCGUCAGUGGGCGAUGACAUGAGGAUCACCCAUGUAGAAGGUGCACAUC [Isragela] (puzzle: Exclusion 2) has apparent KD of MS2 coat protein reaching or exceeding 50 nM?
criterion met

Is it the case that ACUUGCUAUUUGCUCGUCUUAUUUUUGUUUAUUUACUAUACAUGAGGAUCACCCAUGUUAUAUUUAAGGGUGUGAUA [JR_SV3TOV2_Sub074] (puzzle: Sensor v3, turn-off variant 2) has apparent KD of MS2 coat protein reaching or exceeding 50 nM?
criterion met

Is it the case that ACAAGCUUUGAGUUCGUCUUAUACACUCCUAAUAAGAAAACAUGAGGAUCACCCAUGUAAGAAAUAAGAACUCAUGU [Sesor Array 3 - Jieux - Sensor v3, turn-off variant 2] (puzzle: Sensor v3, turn-off variant 2) has apparent KD of MS2 coat protein reaching or exceeding 50 nM?
criterion not met

Is it the case that CCGAGGUAGCGGUCCUAUGACAUGAGGAUCACCCAUGUACCUCGCUACGAGCUUUUUGCUCGUCUUAUAAUUCUCGG [JL Atriat mod 1] (puzzle: Sensor v3, turn-off variant 1) has apparent KD of MS2 coat protein reaching or exceeding 50 nM?
criterion met

New cases:
Is it the case that GAGGCAUGCCUAGGUCCACACAUGAGGAUCACCCAUGUAAUGACAGGCUUUUUACUCGUUUUAUCGCUAUCGCGUUC [Enaor] (puzzle: Sensor v3, turn-off variant 1) has apparent KD of MS2 coat protein reaching or exceeding 50 nM?
criterion not met

Is it the case that GGUAGUAUGAGUAGUCCUCAUUGAAGAGAUUAGUAAGAAACAUGAGGAUCACCCAUGUUAGAACAAGCUUUUGCUCA [JR_Sv3TOV2_Sub004] (puzzle: Sensor v3, turn-off variant 2) has apparent KD of MS2 coat protein reaching or exceeding 50 nM?
criterion met

----------
System: MS2 coat protein
Experiment: apparent KD of MS2 coat protein; higher = weaker reporter binding
Conditions: Eterna round: R107; input ligand: tryptophan 2.4 mM
QUANTITY NAME: apparent KD of MS2 coat protein (nM)
Field format: number, assumed nM, no unit text.

Entry under test: GGGCAAGAGGGAAGGAGCGUCGGCUGAGUAACAUGAGGAUCACCCAUGUAGCACAUAGUGUGGCAGGUAGGUCGCCCUCUGCCCU [SS-ArgB7] . Its apparent KD of MS2 coat protein was 13.2

Entry under test: GUCAGUGACUGAAGGAGCGACAUGAGGAUCACCCAUGUCUCCCGUUAUGGGAGUUCCUUAGGUCAGGUAGGUCGCAGUCACUGAC [#1 Exclusion - Arginine B Attempt #29 (Inspired by Omei)] . Its apparent KD of MS2 coat protein was 95.7

Entry under test: ACGAUAGGACUUGAGGAUCACCCAAGUGAUACCAGCCUGGAAACAGGCCCUUGGCAGCACUAAUACUCCAAUAACCUAUCGAAUA [TheoAX 14 #MicroSwitchBubble #AlternativeMS2] . Its apparent KD of MS2 coat protein was 395

Entry under test: GGGUCGGGCGCGGCCGCCACUGCGGUGAUGUGACAUGAGGAUCACCCAUGUUGUCAUGUGGCACAUAGGACCGGGCGCCCGGCCC [#1 Exclusion - Tryptophan B Attempt #8 (HarryS)] . Its apparent KD of MS2 coat protein was 29.1

Entry under test: AGGCUUCGCAUAGGAAAACUAUGUGAAGCCCGAGGACCGGUACGGCCGCCACUCGUCCUCAACAUGAGGAUCACCCAUGUAAUAA [Mat - Exclusion - Trytophan A - D1] . Its apparent KD of MS2 coat protein was 28.8

----------
Tested on: MS2 coat protein
Assay: apparent KD of MS2 coat protein, switch OFF state (with FMN for OFF switches, without FMN for ON switches); designed switch direction (-1 OFF switch, 1 ON switch): -1; higher = weaker reporter binding
Settings: FMN input: 0 or 200 uM; Eterna round: R93 (includes R88 designs)
The reader will find reported apparent KD of MS2 coat protein values listed item by item below.
Field format: number, assumed nM, no unit text.

Entry under test: AAAACACAUGAGGAUCACCCAUGUUAGGAUAUCCACGCUACUAAUCCUAAACAAAGCGGGAGAAGGAACGUGGC [Xerereonan] . Its apparent KD of MS2 coat protein was 17.5

Entry under test: AACAGUACAGGAUAUACAUGAGGAUCACCCAUGUGAGAAUUAAGUGGCGUACCACAAAGUAGAAGGGUACUGGA [Maslow Revisited] . Its apparent KD of MS2 coat protein was 173

Entry under test: AAAAAGGGAGGAUAUACAUGAGGAUCACCCAUGUGAAAGACGAAAAAGAGUCUAAAAAGUAGAAGGCCCAAAAA [65%, Moding Exclusion3-cac2, 9] . Its apparent KD of MS2 coat protein was 43

Entry under test: AAGAAACAUGAGGAUCACCCAUGUCAGGAUAUCGAAGAAAGAAAGAAAGAAAGAAGAACGAGAAGGGACAAAGG [Gaius Iulius Aquila] . Its apparent KD of MS2 coat protein was 60.4

New cases:
Entry under test: AGAAAGCGAGGAUAUGCUCGGGUUGAAUGACGAGAGAAUACACAUGAGGAUCACCCAUGUAGAAGGUGUAUAAA [JR_Exc002_Sub1712] . Its apparent KD of MS2 coat protein was 35.1

Entry under test: AAGAACACAGGAUAUACAUGAGGAUCACCCAUGUAAAAGAAAGAAGGGAAAGAGAAAAGUAGAAGGGUGAAGAA [Ker] . Its apparent KD of MS2 coat protein was 36.6

----------
Test system: MS2 coat protein
Assay: apparent KD of MS2 coat protein; designed switch direction (-1 OFF switch, 1 ON switch): 1; higher = weaker reporter binding
Conditions: input ligand: microRNA oligo, concentration not stated
QUANTITY NAME: apparent KD of MS2 coat protein (nM)
Field format: number, assumed nM, no unit text.

Entry under test: UUUAGAGGCGCAGGAUAUGGUGAGGAUCACCCACUAGAAGGGUGCACAUGAGAAUCGGACAUGAGGAUCACCCAUGUUUGGCGC (Eterna round: R96, puzzle: Same State NG 1) . Its apparent KD of MS2 coat protein was 554

Entry under test: UCUCGGGUCGUAGGAUAUGUAGGAUAUGUACAUGAGGAUCACCCAUGUCUACCAGAGACAGAAGGACAGAAGGACGAGCCGAGC [pwkr ssNG2 2FMN 1F5s.7] (Eterna round: R96, puzzle: Same State NG 2) . Its apparent KD of MS2 coat protein was 19

Entry under test: AGCUAUUAAUCAGGAUAUGGUCACAUGAGGAUCACCCAUGUAUAGAUGAUAAAAUGUGGUCAAUACUAGAAGGGAUUGCUAACA [SameState NG2 #63] (Eterna round: R96, puzzle: Same State NG 2) . Its apparent KD of MS2 coat protein was 266

Entry under test: AACAGUCGGCGAGGAUAUGGACGUACGGACUAACCCGCGCGGCUCACAUGAGGAUCACCCAUGUUCUAGAAGGCGCCACUGAAA [Xeorendi] (Eterna round: R96, puzzle: Same State NG 2) . Its apparent KD of MS2 coat protein was 45.3

Entry under test: GGUCCAGCGAGAGCUGGACAAAAGCAUGUACAUGAGGAUCACCCAUGUCAUGUACAAGCUUUUUGCUCGUCUUAAAA [Mat - Sensor - JL mod - D88] (Eterna round: R96, puzzle: Sensor for hsa-mir-208a) . Its apparent KD of MS2 coat protein was 12.9

For the next question, use this sequence.
Entry under test: AAACGGCCGAACGGAGGGCCACAUGAGGAUCACCCAUGUACAUAGGAUAUCACGCCAACGAAGCGUGAGAAGGGUGAUUAAAAC [Anriusxees] (Eterna round: R96, puzzle: Same State NG 3) . Its apparent KD of MS2 coat protein was 4.64
